Data provenance: ChEMBL document CHEMBL1123181

- measurement.target: Angiotensin-converting enzyme (Oryctolagus cuniculus, UniProt P12822)
- test.method.notes: In vitro inhibition of Angiotensin I converting enzyme activity in rabbit lung
- Format: tissue-based
- measurement.setup: read-out: I50
property.measured: log10 IC50 (log10 of the value in nM)

>  <compound>
C[C@@H]1CSC(=O)[C@@H]2Cc3ccccc3CN2C1=O

>  <property.measured>
log10 IC50

>  <observed>
1.08

$$$$
>  <compound>
CC1CSC(=O)CN(C2CC3CCC2C3)C1=O (stereo not drawn)

>  <property.measured>
log10 IC50

>  <observed>
1.08

$$$$
>  <compound>
Cc1ccc(N2CC(=O)SC(C)C2=O)cc1 (stereo not drawn)

>  <property.measured>
log10 IC50

>  <observed>
1.93

$$$$
>  <compound>
C[C@@H]1CSC(=O)[C@@H]2CCCN2C1=O

>  <property.measured>
log10 IC50

>  <observed>
1.41

$$$$
>  <compound>
CC1CSC(=O)C2N(C1=O)C(C)(C)SC2(C)C (stereo not drawn)

>  <property.measured>
log10 IC50

>  <observed>
4.70

$$$$
>  <compound>
CC1CSC(=O)CN(C2CCCC2)C1=O (stereo not drawn)

>  <property.measured>
log10 IC50

>  <observed>
1.11

$$$$
>  <compound>
CC1CSC(=O)[C@@H]2CSCN2C1=O (stereo partly drawn)

>  <property.measured>
log10 IC50

>  <observed>
1.67

$$$$

###

- measurement.target: Angiotensin-converting enzyme (Oryctolagus cuniculus, UniProt P12822)
- test.method.notes: In vitro inhibition of Angiotensin I converting enzyme activity in rabbit lung
- Format: tissue-based
- measurement.setup: read-out: I50
Each record is given 1 (yes) if its reported IC50 is strictly below 0.4 µM. Records at or above 0.4 µM are given 0 (no).

>  <molecule>
CC1SC(=O)CNC1=O (stereo not drawn)

>  <discrete.label>
0 (no)

$$$$
>  <molecule>
CC1CSC(=O)[C@@H]2Cc3ccccc3CN2C1=O (stereo partly drawn)

>  <discrete.label>
1 (yes)

$$$$
>  <molecule>
CC1SC(=O)C2N(C1=O)C(C)(C)SC2(C)C (stereo not drawn)

>  <discrete.label>
0 (no)

$$$$
>  <molecule>
Cc1ccc(N2CC(=O)SCC(C)C2=O)cc1 (stereo not drawn)

>  <discrete.label>
1 (yes)

$$$$
>  <molecule>
CC1SC(=O)C(C)(C)N(C2CCCC2)C1=O (stereo not drawn)

>  <discrete.label>
0 (no)

$$$$
>  <molecule>
CC1SC(=O)C(C)N(C2CCCC2)C1=O (stereo not drawn)

>  <discrete.label>
0 (no)

$$$$
>  <molecule>
CC1SC(=O)[C@@H]2CCCN2C1=O (stereo partly drawn)

>  <discrete.label>
0 (no)

$$$$
>  <molecule>
O=C1CN(C2CCCC2)C(=O)c2ccccc2S1

>  <discrete.label>
0 (no)

$$$$
>  <molecule>
CC1SC(=O)CN(C2CCCC2)C1=O (stereo not drawn)

>  <discrete.label>
1 (yes)

$$$$
>  <molecule>
C[C@H]1CSC(=O)[C@@H]2Cc3ccccc3CN2C1=O

>  <discrete.label>
0 (no)

$$$$
>  <molecule>
CC1SC(=O)C2CSCN2C1=O (stereo not drawn)

>  <discrete.label>
1 (yes)

$$$$
>  <molecule>
O=C1CN(C2CCCC2)C(=O)c2cccc(Cl)c2S1

>  <discrete.label>
1 (yes)

$$$$

###

Listed below: IC50 values for each entry.
- measurement.target: Angiotensin-converting enzyme (Oryctolagus cuniculus)
- test.method.notes: In vitro inhibition of Angiotensin I converting enzyme activity at pH 8.5 in rabbit lung
- Assay type: tissue-based
- measurement.setup: read-out: I50

>  <molecule>
CC1SC(=O)CN(C2CCCC2)C1=O (configuration not stated)

>  <IC50>
57 nM

$$$$
>  <molecule>
CC1CSC(=O)[C@@H]2CSCN2C1=O (some centres not stated)

>  <IC50>
58 nM

$$$$
>  <molecule>
CC1CSC(=O)CN(C2CC3CCC2C3)C1=O (configuration not stated)

>  <IC50>
25 nM

$$$$
>  <molecule>
C[C@@H]1SC(=O)[C@@]2(C)Cc3ccccc3CN2C1=O

>  <IC50>
> 100000 nM

$$$$
>  <molecule>
CC1CSC(=O)C2N(C1=O)C(C)(C)SC2(C)C (configuration not stated)

>  <IC50>
15000 nM

$$$$
>  <molecule>
COc1cccc2c1SC(=O)CN(C1CCCC1)C2=O

>  <IC50>
380 nM

$$$$
>  <molecule>
Cc1ccc(N2CC(=O)SC(C)C2=O)cc1 (configuration not stated)

>  <IC50>
26 nM

$$$$
>  <molecule>
CC1CSC(=O)[C@@H]2Cc3ccccc3CN2C1=O (some centres not stated)

>  <IC50>
45 nM

$$$$
>  <molecule>
C[C@H](CSC(=O)C(C)(C)C)C(=O)N(CC(=O)O)C1CCCC1

>  <IC50>
17 nM

$$$$
>  <molecule>
CC1SC(=O)C(C)N(C2CCCC2)C1=O (configuration not stated)

>  <IC50>
6800 nM

$$$$
>  <molecule>
CC1SC(=O)C2N(C1=O)C(C)(C)SC2(C)C (configuration not stated)

>  <IC50>
21000 nM

$$$$
>  <molecule>
Cc1ccc(N2CC(=O)SCC(C)C2=O)cc1 (configuration not stated)

>  <IC50>
5 nM

$$$$
>  <molecule>
O=C1CN(C2CCCC2)C(=O)c2cccc(Cl)c2S1

>  <IC50>
280 nM

$$$$
>  <molecule>
C[C@@H]1CSC(=O)[C@@H]2CCCN2C1=O

>  <IC50>
17 nM

$$$$
>  <molecule>
O=C1CN(C2CCCC2)C(=O)c2ccccc2S1

>  <IC50>
4800 nM

$$$$
>  <molecule>
CC1CSC(=O)CN(C2CCCC2)C1=O (configuration not stated)

>  <IC50>
18 nM

$$$$
>  <molecule>
CC1SC(=O)CNC1=O (configuration not stated)

>  <IC50>
1900 nM

$$$$

###

- measurement.target: Angiotensin-converting enzyme (Oryctolagus cuniculus, UniProt P12822)
- Sequence (P12822 whole entry): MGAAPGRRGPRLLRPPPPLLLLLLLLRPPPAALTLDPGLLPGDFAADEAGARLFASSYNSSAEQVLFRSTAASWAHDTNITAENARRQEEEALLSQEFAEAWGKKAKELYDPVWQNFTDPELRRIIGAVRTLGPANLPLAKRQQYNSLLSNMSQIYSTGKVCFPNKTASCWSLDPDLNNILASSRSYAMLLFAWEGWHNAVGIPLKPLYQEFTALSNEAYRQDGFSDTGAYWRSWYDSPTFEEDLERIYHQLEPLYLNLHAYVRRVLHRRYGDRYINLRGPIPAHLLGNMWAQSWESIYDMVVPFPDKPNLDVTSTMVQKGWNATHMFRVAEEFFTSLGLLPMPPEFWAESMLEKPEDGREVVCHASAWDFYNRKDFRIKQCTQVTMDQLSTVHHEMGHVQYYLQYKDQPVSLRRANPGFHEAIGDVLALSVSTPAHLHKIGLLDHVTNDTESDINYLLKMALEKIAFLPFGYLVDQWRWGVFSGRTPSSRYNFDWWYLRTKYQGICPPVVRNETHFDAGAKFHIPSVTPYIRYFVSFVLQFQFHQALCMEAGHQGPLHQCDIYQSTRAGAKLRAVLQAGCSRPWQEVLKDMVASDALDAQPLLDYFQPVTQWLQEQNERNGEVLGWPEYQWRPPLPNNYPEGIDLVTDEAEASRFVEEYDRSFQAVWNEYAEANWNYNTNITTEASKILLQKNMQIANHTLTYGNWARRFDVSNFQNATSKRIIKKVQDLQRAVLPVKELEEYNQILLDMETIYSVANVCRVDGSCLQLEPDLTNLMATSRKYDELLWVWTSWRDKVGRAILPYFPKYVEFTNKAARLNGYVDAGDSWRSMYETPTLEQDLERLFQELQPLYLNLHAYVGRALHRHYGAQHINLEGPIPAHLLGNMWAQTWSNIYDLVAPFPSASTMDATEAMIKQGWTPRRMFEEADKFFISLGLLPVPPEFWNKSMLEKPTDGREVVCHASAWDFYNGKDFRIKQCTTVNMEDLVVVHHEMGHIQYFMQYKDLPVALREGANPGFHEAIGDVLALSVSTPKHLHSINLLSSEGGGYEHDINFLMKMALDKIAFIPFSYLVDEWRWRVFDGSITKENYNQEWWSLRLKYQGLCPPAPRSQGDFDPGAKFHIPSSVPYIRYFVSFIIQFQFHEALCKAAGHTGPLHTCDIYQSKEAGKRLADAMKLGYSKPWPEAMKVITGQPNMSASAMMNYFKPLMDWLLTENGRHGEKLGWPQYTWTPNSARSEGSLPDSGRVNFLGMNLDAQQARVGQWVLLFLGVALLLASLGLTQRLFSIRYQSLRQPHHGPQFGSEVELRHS
- test.method.notes: Compound was tested in vitro for inhibition of activity of rabbit lung Angiotensin I converting enzyme at pH 8.5; 0.14-10
- measurement.setup: read-out: I50
pIC50: −log10 of the molar value.

>  <molecule>
CC1SC(=O)C2CSCN2C1=O (stereo unspecified)

>  <pIC50>
6.85

$$$$
